test system: HMEC-1; assay: Antiproliferative activity against SV40 large T-antigen 38 immortalized HMEC1 cells after 72 hrs by MTT assay; type: cell-based; conditions: Homo sapiens, HMEC-1, 72 h
Metric: pIC50
Schema: pIC50 number; meaning minus log10 of the concentration expressed in molar units.

Ask | Under HMEC-1: pIC50 value of COc1ccc(COc2c(C(=O)N3C[C@@H](C)O[C@@H](C)C3)sc3ccccc23)cc1 ?
Reply | 4.08

Ask | Given the entry C[C@@H]1CN(C(=O)c2sc3ccccc3c2Cl)C[C@H](C)O1 , what pIC50 was observed with HMEC-1?
Reply | 3.71

Ask | API: value(readout= pIC50, system= HMEC-1, query= C[C@@H]1CN(C(=O)c2sc3ccccc3c2OCc2ccccc2)C[C@H](C)O1 )
Reply | 4.14

Ask | Hello, I am looking for reported pIC50 with HMEC-1 for C[C@@H]1CN(C(=O)c2sc3ccccc3c2OCc2ccc(F)c(F)c2)C[C@H](C)O1 . Could you help?
Reply | 4.01

Ask | Request body: readout pIC50, system HMEC-1, query CC1CC(C)CN(C(=O)c2sc3ccccc3c2Cl)C1 (stereo not given) . Return the value.
Reply | 3.83

Ask | Under HMEC-1: pIC50 value of Cc1ccc2c(Cl)c(C(=O)N3C[C@@H](C)O[C@@H](C)C3)sc2c1 ?
Reply | 3.70

Ask | Find the measured pIC50: item Cc1c(C(=O)N2C[C@@H](C)O[C@@H](C)C2)sc2ccccc12 , target or system HMEC-1.
Reply | 3.85

Ask | Please state recorded pIC50 (tested on HMEC-1) of C[C@@H]1CN(C(=O)c2sc3ccccc3c2OCc2ccc(Cl)cc2)C[C@H](C)O1
Reply | 4.32

Ask | Find pIC50 (HMEC-1) for the entry C[C@@H]1CN(C(=O)c2sc3ccccc3c2Cl)C[C@@H](C)O1
Reply | 3.81

====

test: Half-life in human liver microsomes at 1 uM in presence of NADPH by HPLC-MS/MS method; format: ADME, microsome
Metric: half-life at 1 µM (min)
Write the value in min as a bare number.

Ask | Reported half-life at 1 µM, compound C[C@@H]1CN(C(=O)c2sc3ccccc3c2OCc2ccccc2)C[C@H](C)O1 : ____
Reply | 2.1

Ask | Need half-life at 1 µM of C[C@@H]1CN(C(=O)c2sc3ccccc3c2Cl)C[C@H](C)O1 , thanks.
Reply | 40

Ask | Requested field: half-life at 1 µM. Item: Cc1c(C(=O)N2C[C@@H](C)O[C@@H](C)C2)sc2ccccc12
Reply | 44
